Overview of recorded MIC for various compounds
- Tested on: A. baumannii
- assay_text: Broth dilution MIC determination (CLSI) against A. baumannii strains
- Type: cell-based
- details: A. baumannii clinical, strain MP577 (Table N2)

{"compound": "CCC1OC(=O)C(C)C(=O)C(C)C(OC2OC(C)CC(N(C)CC#N)C2O)C(C)(OC)CC(C)CNC(C)C2N(CCCCn3cc(-c4cccc(N)c4)nn3)C(=O)OC12C (centres unmarked) [FSM-120371]", "MIC": ">64 µg/mL"}
{"compound": "CCC1OC(=O)C(C)C(=O)C(C)C(OC2OC(C)CC(NCc3cccnc3)C2O)C(C)(OC)CC(C)CNC(C)C2N(CCCCn3cc(-c4cccc(N)c4)nn3)C(=O)OC12C (centres unmarked) [FSM-120384]", "MIC": ">64 µg/mL"}
{"compound": "CCC1OC(=O)C(C)C(=O)C(C)C(OC2OC(C)CC(N(C)Cc3cccnc3)C2O)C(C)(OC)CC(C)CNC(C)C2N(CCCCn3cc(-c4cccc(N)c4)nn3)C(=O)OC12C (centres unmarked) [FSM-120385]", "MIC": "64 µg/mL"}
{"compound": "CCC1OC(=O)C(C)C(=O)C(C)C(OC2OC(C)CC(N(CCO)CCO)C2O)C(C)(OC)CC(C)CNC(C)C2N(CCCCn3cc(-c4cccc(N)c4)nn3)C(=O)OC12C (centres unmarked) [FSM-120379]", "MIC": ">64 µg/mL"}
{"compound": "CCC1OC(=O)C(C)C(=O)C(C)C(OC2OC(C)CC(N3CCOC3CO)C2O)C(C)(OC)CC(C)CNC(C)C2N(CCCCn3cc(-c4cccc(N)c4)nn3)C(=O)OC12C (centres unmarked) [FSM-120380]", "MIC": ">64 µg/mL"}

* * *

- Tested on: E. coli
- assay_text: Broth dilution MIC determination (CLSI) against E. coli strains
- Format: cell-based
- details: Escherichia coli, read-out: MIC E. coli TEM-1, TEM-1
readout: MIC

{"molecule": "CC[C@H]1OC(=O)[C@H](C)C(=O)[C@H](C)[C@@H](O[C@@H]2OC(CNC(=O)c3ccccn3)CC(N(C)C)C2O)[C@](C)(OC)C[C@@H](C)CN[C@H](C)[C@H]2N(CCCCn3cc(-c4cccc(N)c4)nn3)C(=O)O[C@]12C (some centres unmarked)", "readout": "MIC", "measured": "16 µg/mL"}
{"molecule": "CC[C@H]1OC(=O)[C@@](C)(F)C(=O)[C@H](C)[C@@H](O[C@@H]2O[C@H](C)C[C@H](N(C)C)[C@H]2O)[C@](C)(OC)C[C@@H](C)C(=O)[C@H](C)[C@H]2N(CCCCn3cc(-c4cccc(N)c4)nn3)C(=O)O[C@]12C [Solithromycin, solithromycin, reference compound]", "readout": "MIC", "measured": "32 µg/mL"}

* * *

- Test system: S. pneumoniae
- assay_text: Broth dilution MIC determination (CLSI) against S. pneumoniae strains
- Format: cell-based
- details: mefA, Strain No. MP-627 UNT-039
- From the text: Minimum inhibitory concentrations (MICs) for macrolides described herein have been determined for unique strains of S. aureus, S. pneumoniae, S. pyogenes, E. faecalis, E. coli, A. baumannii, K. pneumoniae, P. aeruginosa, and H. influenzae, including several multidrug-resistant strains, with a special focus on macrolide resistant mechanisms. Azithromycin and solithromycin were included as control compounds. CLSI standard procedures for broth dilution MIC determination were used. […]
readout: MIC S. pneumoniae mefA (µg/mL)

{"molecule": "CCC1OC(=O)C(C)C(=O)C(C)C(OC2OC(CNCc3ccc(F)cc3)CC(N(C)C)C2O)C(C)(OC)CC(C)CNC(C)C2N(CCCCn3cc(-c4cccc(N)c4)nn3)C(=O)OC12C (stereo not shown)", "measured_on": "S. pneumoniae", "measure_unit": "µg/mL", "measured": 0.125}
{"molecule": "CCC1OC(=O)C(C)C(=O)C(C)C(OC2OC(C)CC(n3cccc3)C2O)C(C)(OC)CC(C)CNC(C)C2N(CCCCn3cc(-c4cccc(N)c4)nn3)C(=O)OC12C (stereo not shown)", "measured_on": "S. pneumoniae", "measure_unit": "µg/mL", "measured": 8}
{"molecule": "CCC1OC(=O)C(C)C(=O)C(C)C(OC2OC(C)CC(n3ccnc3)C2O)C(C)(OC)CC(C)CNC(C)C2N(CCCCn3cc(-c4cccc(N)c4)nn3)C(=O)OC12C (stereo not shown)", "measured_on": "S. pneumoniae", "measure_unit": "µg/mL", "measured": 0.25}
{"molecule": "CCC1OC(=O)C(C)C(=O)C(C)C(OC2OC(C)CC(NCC#N)C2O)C(C)(OC)CC(C)CNC(C)C2N(CCCCn3cc(-c4cccc(N)c4)nn3)C(=O)OC12C (stereo not shown)", "measured_on": "S. pneumoniae", "measure_unit": "µg/mL", "measured": 0.25}
{"molecule": "CCC1OC(=O)C(C)C(=O)C(C)C(OC2OC(C)CC(N3CCOCC3)C2O)C(C)(OC)CC(C)CNC(C)C2N(CCCCn3cc(-c4cccc(N)c4)nn3)C(=O)OC12C (stereo not shown)", "measured_on": "S. pneumoniae", "measure_unit": "µg/mL", "measured": 16}
{"molecule": "CCC1OC(=O)C(C)C(=O)C(C)C(OC2OC(C)CC(NCC(=O)O)C2O)C(C)(OC)CC(C)CNC(C)C2N(CCCCn3cc(-c4cccc(N)c4)nn3)C(=O)OC12C (stereo not shown)", "measured_on": "S. pneumoniae", "measure_unit": "µg/mL", "measured": 8}
{"molecule": "C=CCOCC1CC(N(C)C)C(O)C(OC2C(C)C(=O)C(C)C(=O)OC(CC)C3(C)OC(=O)N(CCCCn4cc(-c5cccc(N)c5)nn4)C3C(C)NCC(C)CC2(C)OC)O1 (stereo not shown)", "measured_on": "S. pneumoniae", "measure_unit": "µg/mL", "measured": 0.5}
